- Tested on: β-galactosidase in CMV-LacZ C2C12 myoblasts
- PROCEDURE SUMMARY: CMV-LacZ secondary screen in C2C12 myoblasts (β-Gal stabilizing assay)
- Assay type: cell-based, mouse
- MEASUREMENT SETUP: 5 uM; CMV-LacZ C2C12 myoblasts
Threshold check on CMV-LACZ in Myoblasts (β-galactosidase activity relative to DMSO): at or above 0.9 gives rule met, strictly below gives rule not met.

Use the examples below as a reference point.
>>> category_label("CC(C)CN(C(=O)c1cccc(Cl)c1)c1c(N)n(Cc2ccccc2)c(=O)[nH]c1=O [MLS002163670-01]")
"rule not met"
>>> category_label("COc1ccc(OC)c(NC(=O)CN2CCC(NC(=O)c3ccccc3C)CC2)c1 [MLS001212882-01]")
"rule met"
>>> category_label("Cc1noc(C)c1COc1ccc(C(=O)NCCc2ccccn2)cc1 [MLS001061374-01]")
"rule met"
>>> category_label("COc1ccc(C(=O)Cn2nnc(-c3ccccc3NC(=O)c3ccco3)n2)cc1 [MLS000072290-01]")
"rule met"
>>> category_label("CCOc1ccccc1NC(=O)c1cccc2c1C(=O)N(C1CCCCC1)C2 [MLS000912726-01]")
"rule met"
>>> category_label("COc1cccc(C(=O)COc2ccc3ccc(=O)oc3c2)c1 [MLS000677675-01]")
"rule met"

stdin: Has Cc1cccc2c(N=Nc3ccc(S(=O)(=O)Nc4ccc(Cl)cc4)cc3[N+](=O)[O-])c(O)[nH]c12 [MLS000393762-01] a recorded CMV-LACZ in Myoblasts (β-galactosidase activity relative to DMSO) greater than or equal to 0.9?
stdout: rule met

stdin: Has O=C(O)CC1(c2ccccc2)C(=O)c2ccccc2C1=O [MLS000052969-01] a recorded CMV-LACZ in Myoblasts (β-galactosidase activity relative to DMSO) greater than or equal to 0.9?
stdout: rule met

stdin: Has Cc1ccsc1CN(C)CC(=O)Nc1ccc([N+](=O)[O-])cc1Cl [MLS001172822-01] a recorded CMV-LACZ in Myoblasts (β-galactosidase activity relative to DMSO) greater than or equal to 0.9?
stdout: rule met

stdin: Has Cc1ccc(NS(=O)(=O)c2cccc(C(=O)O)c2)cc1S(=O)(=O)N1CCOCC1 [MLS000393966-01] a recorded CMV-LACZ in Myoblasts (β-galactosidase activity relative to DMSO) greater than or equal to 0.9?
stdout: rule met

stdin: Has NC(=O)c1sc2nc3c(cc2c1N)CCC3 [MLS000707378-01] a recorded CMV-LACZ in Myoblasts (β-galactosidase activity relative to DMSO) greater than or equal to 0.9?
stdout: rule not met

stdin: Has CC(=O)C1=C(C)Nc2ncnn2C1c1ccc(C)cc1 (centres unmarked) [MLS001197779-01] a recorded CMV-LACZ in Myoblasts (β-galactosidase activity relative to DMSO) greater than or equal to 0.9?
stdout: rule not met

stdin: Has CCCCNc1nnc(Cc2ccc(Cl)cc2)c(=O)[nH]1 [MLS001215795-01] a recorded CMV-LACZ in Myoblasts (β-galactosidase activity relative to DMSO) greater than or equal to 0.9?
stdout: rule met

stdin: Has CC(C)(C)c1csc(NC(=O)c2cccnc2)n1 [MLS001164432-01] a recorded CMV-LACZ in Myoblasts (β-galactosidase activity relative to DMSO) greater than or equal to 0.9?
stdout: rule met

stdin: Has CCOC(=O)c1nnn(-c2nonc2OC)c1-c1ccccc1 [MLS000045588-01] a recorded CMV-LACZ in Myoblasts (β-galactosidase activity relative to DMSO) greater than or equal to 0.9?
stdout: rule met

stdin: Has O=S(=O)(NC(=NC1CCCCC1)c1ccccc1F)c1ccccc1 [MLS000947910-01] a recorded CMV-LACZ in Myoblasts (β-galactosidase activity relative to DMSO) greater than or equal to 0.9?
stdout: rule met
